Test system: Echinochloa oryzicola Vasing
Assay: Herbicidal effects in paddy field soil treatment (Test Example 1)
Assay type: in vivo
Design: scale not given here
Details: paddy field soil treatment; 1000 g of the active ingredient per hectare; wettable powder added dropwise on water surface; 21st day after treatment
From the text: Test for Herbicidal Effects in Paddy Field Soil Treatment A 100-cm^2 plastic pot was filled with paddy field soil. After puddling and leveling, seeds of Echinochloa oryzicola Vasing, Monochoria vaginalis (Burm. f.) Presl var. plantaginea (Roxb.) Solms-Laub., and Scirpus juncoides Roxb. var. ohwianus. T. Koyama were sowed, and the soil was waterlogged to a water depth of 3 cm. […]
Assay Metric: Herbicidal effects index, Echinochloa oryzicola Vasing
Lab note: record just the number, no unit beside it.

Ask: Tell me Herbicidal effects index, Echinochloa oryzicola Vasing reported for COc1ccc(Cn2c(=O)c(C(=O)C3=C(O)CCCC3=O)nc3ccccc32)cc1
Result: 4

Ask: Tell me Herbicidal effects index, Echinochloa oryzicola Vasing reported for O=C1CCCC(O)=C1C(=O)c1nc2ccccc2n(-c2ccc(F)cn2)c1=O
Result: 5

Ask: Tell me Herbicidal effects index, Echinochloa oryzicola Vasing reported for COc1ccc(-n2c(=O)c(C(=O)C3=C(O)CCCC3=O)nc3ccccc32)cc1
Result: 5

Ask: Tell me Herbicidal effects index, Echinochloa oryzicola Vasing reported for O=C1CCCC(O)=C1C(=O)c1nc2ccccc2n(COc2ccccc2)c1=O
Result: 4

Ask: Tell me Herbicidal effects index, Echinochloa oryzicola Vasing reported for O=C1CCCC(O)=C1C(=O)c1nc2ccccc2n(-c2ccc(OCC3CC3)cc2)c1=O
Result: 5

Ask: Tell me Herbicidal effects index, Echinochloa oryzicola Vasing reported for COc1ccc(-n2c(=O)c(C(=O)C3=C(O)CC(C)(C)CC3=O)nc3ccccc32)cc1
Result: 5

Ask: Tell me Herbicidal effects index, Echinochloa oryzicola Vasing reported for O=C1CCCC(O)=C1C(=O)c1nc2ccccc2n(-c2ccc(C(F)(F)F)cn2)c1=O
Result: 5

Ask: Tell me Herbicidal effects index, Echinochloa oryzicola Vasing reported for Cn1c(=O)c(C(=O)C2=C(O)CCCC2=O)nc2ccccc21
Result: 4

Ask: Tell me Herbicidal effects index, Echinochloa oryzicola Vasing reported for Cn1c(=O)c(C(=O)C2=C(O)CCCC2=O)nc2cc(F)ccc21
Result: 5

Ask: Tell me Herbicidal effects index, Echinochloa oryzicola Vasing reported for Cn1nc(C(F)(F)F)cc1-n1c(=O)c(C(=O)C2=C(O)CCCC2=O)nc2ccccc21
Result: 5

Ask: Tell me Herbicidal effects index, Echinochloa oryzicola Vasing reported for COc1cc(OC)nc(-n2c(=O)c(C(=O)C3=C(O)CCCC3=O)nc3ccccc32)n1
Result: 5

Ask: Tell me Herbicidal effects index, Echinochloa oryzicola Vasing reported for O=C1CCCC(O)=C1C(=O)c1nc2ccccc2n(CC(F)(F)F)c1=O
Result: 5

Ask: Tell me Herbicidal effects index, Echinochloa oryzicola Vasing reported for CC(C)c1cccc(-n2c(=O)c(C(=O)C3=C(O)CCCC3=O)nc3ccccc32)c1
Result: 5

Ask: Tell me Herbicidal effects index, Echinochloa oryzicola Vasing reported for COc1cc(-n2c(=O)c(C(=O)C3=C(O)CCCC3=O)nc3ccccc32)ccc1Cl
Result: 5

Ask: Tell me Herbicidal effects index, Echinochloa oryzicola Vasing reported for O=C1CCCC(O)=C1C(=O)c1nc2ccccc2n(-c2ccc3c(c2)OC(F)(F)O3)c1=O
Result: 4

Ask: Tell me Herbicidal effects index, Echinochloa oryzicola Vasing reported for Cc1nnc(-n2c(=O)c(C(=O)C3=C(O)CCCC3=O)nc3ccccc32)s1
Result: 5

Ask: Tell me Herbicidal effects index, Echinochloa oryzicola Vasing reported for O=C1CCCC(O)=C1C(=O)c1nc2ccccc2n(Cc2cccc(Cl)c2)c1=O
Result: 5

Ask: Tell me Herbicidal effects index, Echinochloa oryzicola Vasing reported for CC1(C)C(=O)C(C(=O)c2nc3ccccc3n(-c3ccccc3)c2=O)=C(O)C(C)(C)C1=O
Result: 5

* * *

Tested on: Echinochloa oryzicola Vasing
Test: Herbicidal effects in paddy field soil treatment (Test Example 1)
Format: in vivo
Parameters: scale not given here
Conditions: paddy field soil treatment (Test Example 1); criteria of Table 138
Assay Metric: herbicidal effect (index) on Echinochloa oryzicola Vasing
Lab note: record just the number, no unit beside it.

Ask: Tell me herbicidal effect (index) on Echinochloa oryzicola Vasing reported for Cc1ccc(-n2c(=O)c(C(=O)C3=C(O)CCCC3=O)nc3cccnc32)cc1F
Result: 5

Ask: Tell me herbicidal effect (index) on Echinochloa oryzicola Vasing reported for O=C1CCCC(O)=C1C(=O)c1cnccn1 [comparative compound A, reference compound]
Result: 2

Ask: Tell me herbicidal effect (index) on Echinochloa oryzicola Vasing reported for COc1cccc(-n2c(=O)c(C(=O)C3=C(O)CCCC3=O)nc3cccnc32)c1
Result: 4

Ask: Tell me herbicidal effect (index) on Echinochloa oryzicola Vasing reported for O=C1CCCC(O)=C1C(=O)c1nc2cccnc2n(-c2ccccc2OC(F)F)c1=O
Result: 5

Ask: Tell me herbicidal effect (index) on Echinochloa oryzicola Vasing reported for O=C1CCCC(O)=C1C(=O)c1nc2cccnc2n(-c2cccc(OC(F)F)c2)c1=O
Result: 5

Ask: Tell me herbicidal effect (index) on Echinochloa oryzicola Vasing reported for O=C1CCCC(O)=C1C(=O)c1nc2cccnc2n(-c2ccccc2OC(F)(F)F)c1=O
Result: 5

Ask: Tell me herbicidal effect (index) on Echinochloa oryzicola Vasing reported for CC1(C)CC(=O)C(C(=O)c2cnc3ccccc3n2)=C(O)C1 [comparative compound C, reference compound]
Result: 1

Ask: Tell me herbicidal effect (index) on Echinochloa oryzicola Vasing reported for CC1(C)CCC(=O)C(C(=O)c2cnc3ccccc3n2)=C1O [comparative compound D, reference compound]
Result: 1

Ask: Tell me herbicidal effect (index) on Echinochloa oryzicola Vasing reported for COc1ccccc1-n1c(=O)c(C(=O)C2=C(O)CCCC2=O)nc2cccnc21
Result: 5

Ask: Tell me herbicidal effect (index) on Echinochloa oryzicola Vasing reported for COc1ccc(-n2c(=O)c(C(=O)C3=C(O)CCCC3=O)nc3cccnc32)cc1
Result: 5

Ask: Tell me herbicidal effect (index) on Echinochloa oryzicola Vasing reported for O=C1CCCC(O)=C1C(=O)c1nc2cccnc2n(-c2ccc(OC(F)F)cc2)c1=O
Result: 5

Ask: Tell me herbicidal effect (index) on Echinochloa oryzicola Vasing reported for O=C1CCCC(O)=C1C(=O)c1ccc2ccccc2n1 [comparative compound B, reference compound]
Result: 0

* * *

Give measured Herbicidal effects index, Echinochloa oryzicola Vasing for each item. Keep answers brief.
Tested on: Echinochloa oryzicola Vasing
Experiment: Herbicidal effects in paddy field soil treatment (Test Example 1)
Assay type: in vivo
Design: scale not given here
Settings: paddy field soil treatment; 1000 g of the active ingredient per hectare; wettable powder added dropwise on water surface; 21st day after treatment
Lab note: record just the number, no unit beside it.

Ask: Tell me Herbicidal effects index, Echinochloa oryzicola Vasing reported for CCc1cccc(-n2c(=O)c(C(=O)C3=C(O)CCCC3=O)nc3ccccc32)c1 [II-23]
Result: 5

Ask: Tell me Herbicidal effects index, Echinochloa oryzicola Vasing reported for Cn1nc(-n2c(=O)c(C(=O)C3=C(O)CCCC3=O)nc3ccccc32)cc1C(F)(F)F [I-267]
Result: 5

Ask: Tell me Herbicidal effects index, Echinochloa oryzicola Vasing reported for O=C1CCCC(O)=C1C(=O)c1nc2ccccc2n(-c2nc(C(F)(F)F)co2)c1=O [I-268]
Result: 5

Ask: Tell me Herbicidal effects index, Echinochloa oryzicola Vasing reported for COc1ccc(-n2c(=O)c(C(=O)C3=C(O)CCCC3=O)nc3c(F)cc(F)cc32)cc1 [II-259]
Result: 4

Ask: Tell me Herbicidal effects index, Echinochloa oryzicola Vasing reported for COc1ccc(-n2c(=O)c(C(=O)C3=C(O)CCCC3=O)nc3ccc(Cl)cc32)cc1 [II-196]
Result: 4

Ask: Tell me Herbicidal effects index, Echinochloa oryzicola Vasing reported for O=C1CCCC(O)=C1C(=O)c1nc2cccnc2n(-c2ccccc2)c1=O [IV-1]
Result: 5

Ask: Tell me Herbicidal effects index, Echinochloa oryzicola Vasing reported for Cn1c(=O)c(C(=O)C2=C(O)C3CCC(C3)C2=O)nc2cccnc21 (stereo not drawn) [III-5]
Result: 5

Ask: Tell me Herbicidal effects index, Echinochloa oryzicola Vasing reported for CC1=NOC(Cn2c(=O)c(C(=O)C3=C(O)CCCC3=O)nc3ccccc32)C1 (stereo not drawn) [I-212]
Result: 5

Ask: Tell me Herbicidal effects index, Echinochloa oryzicola Vasing reported for COc1ccc(-n2c(=O)c(C(=O)C3=C(O)CCCC3=O)nc3c(Cl)cccc32)cc1F [II-301]
Result: 5

Ask: Tell me Herbicidal effects index, Echinochloa oryzicola Vasing reported for O=C1CCCC(O)=C1C(=O)c1nc2ccc(F)cc2n(-c2ccccc2)c1=O [II-241]
Result: 5

Ask: Tell me Herbicidal effects index, Echinochloa oryzicola Vasing reported for COc1ccc(-n2c(=O)c(C(=O)C3=C(O)CCCC3=O)nc3cccc(OC)c32)cc1 [II-257]
Result: 5

Ask: Tell me Herbicidal effects index, Echinochloa oryzicola Vasing reported for COc1ccc(-n2c(=O)c(C(=O)C3=C(O)CCCC3=O)nc3c(F)cccc32)cc1 [II-186]
Result: 4

Ask: Tell me Herbicidal effects index, Echinochloa oryzicola Vasing reported for O=C1CCCC(O)=C1C(=O)c1nc2ccccc2n(-c2ccc3c(c2)CCO3)c1=O [I-201]
Result: 5

Ask: Tell me Herbicidal effects index, Echinochloa oryzicola Vasing reported for O=C1CCCC(O)=C1C(=O)c1nc2ccccc2n(-c2ccc(Cl)nn2)c1=O [I-273]
Result: 5

Ask: Tell me Herbicidal effects index, Echinochloa oryzicola Vasing reported for CC(CCn1c(=O)c(C(=O)C2=C(O)CCCC2=O)nc2cccnc21)=C(F)F [III-232]
Result: 5

Ask: Tell me Herbicidal effects index, Echinochloa oryzicola Vasing reported for O=C1CCCC(O)=C1C(=O)c1nc2ccccc2n(-c2cccc([N+](=O)[O-])c2)c1=O [II-130]
Result: 5

Ask: Tell me Herbicidal effects index, Echinochloa oryzicola Vasing reported for O=C(C1=C(O)C2CCC(C2)C1=O)c1nc2ccccc2n(COCC(F)(F)F)c1=O (stereo not drawn) [I-62]
Result: 5

Ask: Tell me Herbicidal effects index, Echinochloa oryzicola Vasing reported for CC(c1ccccc1)n1c(=O)c(C(=O)C2=C(O)CCCC2=O)nc2cccnc21 (stereo not drawn) [III-130]
Result: 5
